- Test system: Escherichia coli TOP10
- Protocol: shrunken log2 fold change of peptide-encoding DNA abundance (4.5 h post-induction vs induction); higher = less antimicrobial activity (less host growth inhibition)
- Reported Conditions: time post-induction: 4.5 h; library: site-saturation at positions 5, 18, 19, 20
Value Type: shrunken log2 fold change
Reply briefly: the number, and no unit.

Worked examples follow.
# Biopolymer Sequence, Tested Target, Measured Result
data = [
    ("RRIRCRPPRLPRPRPRPKQPPRP", "Escherichia coli TOP10", 0.595),
    ("RRIRARPPRLPRPRPRPQSCPRP", "Escherichia coli TOP10", -0.0161),
]

// query Fill in: shrunken log2 fold change of "RRIRTRPPRLPRPRPRPIMVPRP" is ___
// result -0.198

// query Further, for "RRIRQRPPRLPRPRPRPYNPPRP" ?
// result -0.529

// query Further, for "RRIRSRPPRLPRPRPRPKYPPRP" ?
// result -0.186

// query Further, for "RRIRVRPPRLPRPRPRPFGFPRP" ?
// result -0.294

// query Further, for "RRIRCRPPRLPRPRPRPSAVPRP" ?
// result -0.0828

// query Further, for "RRIRTRPPRLPRPRPRPRTTPRP" ?
// result 0.419

// query Further, for "RRIRTRPPRLPRPRPRPEMFPRP" ?
// result -0.0156

// query Further, for "RRIRDRPPRLPRPRPRPDDHPRP" ?
// result 0.023

// query Further, for "RRIRGRPPRLPRPRPRPKRWPRP" ?
// result 0.796

// query Further, for "RRIRVRPPRLPRPRPRPTRHPRP" ?
// result 0.156

// query Further, for "RRIRRRPPRLPRPRPRPRRCPRP" ?
// result 0.615

// query Further, for "RRIRLRPPRLPRPRPRPLLNPRP" ?
// result -0.468

// query Further, for "RRIRCRPPRLPRPRPRPCFEPRP" ?
// result -0.00928

###

- System: Escherichia coli TOP10
- Protocol: shrunken log2 fold change of peptide-encoding DNA abundance (4.5 h post-induction vs induction); higher = less antimicrobial activity (less host growth inhibition)
- Reported Conditions: time post-induction: 4.5 h; library: site-saturation at positions 5, 18, 19, 20
Value Type: shrunken log2 fold change
Reply briefly: the number, and no unit.

Worked examples follow.
# Biopolymer Sequence, Value Type, Measured Result
rows = [
    ("RRIRWRPPRLPRPRPRPYLGPRP", "shrunken log2 fold change", -0.616),
    ("RRIRMRPPRLPRPRPRPMTFPRP", "shrunken log2 fold change", -0.512),
    ("RRIRHRPPRLPRPRPRPCFKPRP", "shrunken log2 fold change", -1.25),
    ("RRIRQRPPRLPRPRPRPVRGPRP", "shrunken log2 fold change", 1.97),
]

// query Fill in: shrunken log2 fold change of "RRIRNRPPRLPRPRPRPNWEPRP" is ___
// result 0.0299

// query Further, for "RRIRLRPPRLPRPRPRPSHKPRP" ?
// result -0.354

###

- Test system: Escherichia coli TOP10;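 also: peptides expressed intracellularly from a pBAD plasmid library in pooled LB shake-flask culture, induced with 0.3% L-arabinose, DNA abundance read by NGS, three biological replicates, DESeq2 with apeglm shrinkage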
- Protocol: shrunken log2 fold change of peptide-encoding DNA abundance (4.5 h post-induction vs induction); higher = less antimicrobial activity (less host growth inhibition)
- Reported Conditions: time post-induction: 4.5 h; library: site-saturation at positions 5, 18, 19, 20
Value Type: shrunken log2 fold change
Reply briefly: the number, and no unit.

Worked examples follow.
# Biopolymer Sequence, shrunken log2 fold change
measured = [
    ("RRIRLRPPRLPRPRPRPYHSPRP", -0.018),
    ("RRIRWRPPRLPRPRPRPVCPPRP", 0.142),
    ("RRIRWRPPRLPRPRPRPIIRPRP", -0.00231),
    ("RRIRWRPPRLPRPRPRPYDGPRP", -0.337),
    ("RRIRNRPPRLPRPRPRPSDIPRP", 0.0588),
]

// query Fill in: shrunken log2 fold change of "RRIRYRPPRLPRPRPRPFYKPRP" is ___
// result -0.00388

// query Further, for "RRIRWRPPRLPRPRPRPPNHPRP" ?
// result 0.0941

// query Further, for "RRIRLRPPRLPRPRPRPPHTPRP" ?
// result 0.26

// query Further, for "RRIRPRPPRLPRPRPRPRCQPRP" ?
// result 0.273

// query Further, for "RRIRYRPPRLPRPRPRPEDCPRP" ?
// result -0.029

// query Further, for "RRIRVRPPRLPRPRPRPCHRPRP" ?
// result -0.0177

// query Further, for "RRIRIRPPRLPRPRPRPHWSPRP" ?
// result -0.187
